experimental.system: HDAC2 (Homo sapiens)
Construct: purchased Reaction Biology Corporation (assay run by the CRO)
Sequence (Q92769 whole entry): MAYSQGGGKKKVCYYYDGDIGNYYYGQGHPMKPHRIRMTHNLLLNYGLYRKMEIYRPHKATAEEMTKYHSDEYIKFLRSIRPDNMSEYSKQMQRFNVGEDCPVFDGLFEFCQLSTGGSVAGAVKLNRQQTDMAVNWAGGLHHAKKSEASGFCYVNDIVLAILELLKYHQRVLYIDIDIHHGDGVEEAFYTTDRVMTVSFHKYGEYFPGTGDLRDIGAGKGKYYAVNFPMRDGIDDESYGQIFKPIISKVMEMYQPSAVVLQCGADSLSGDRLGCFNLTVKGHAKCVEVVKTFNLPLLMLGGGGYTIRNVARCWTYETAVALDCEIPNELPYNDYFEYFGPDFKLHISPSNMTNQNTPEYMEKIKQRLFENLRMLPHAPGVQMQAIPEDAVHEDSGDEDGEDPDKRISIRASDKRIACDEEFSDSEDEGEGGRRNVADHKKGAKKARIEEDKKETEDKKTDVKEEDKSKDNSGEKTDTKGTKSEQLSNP
assay: HDAC2 inhibition, full IC50 measurement (Reaction Biology; fluorogenic p53 peptide RHKK(Ac)AMC)
Assay type: biochemical
assay.conditions: Conc. 1.52E-09 M, t1
Peptide text beside a SMILES is read from it.
Listing: HDAC2 activity raw data (signal) of selected compounds
Number only, please.

A selection of reference data follows.
{"compound": "CC(C)C[C@H]1NC(=O)[C@H](Cc2c[nH]c3ccccc23)NC(=O)[C@H](CCCCCS)NC(=O)[C@@H](Cc2ccc(O)cc2)NC(=O)[C@@H](C(C)C)NC(=O)[C@H](Cc2c[nH]cn2)NC(=O)CNC(=O)CNC(=O)[C@@H](CO)NC1=O [des2.2.0, SHA-Trp-dLeu-dSer-Gly-Gly-His-dVal-dTyr] (HELM PEPTIDE1{G.G.H.[dV].[dY].[O=C([C@H](CCCCCS)N[*:1])[*:2]].W.[dL].[dS]}$PEPTIDE1,PEPTIDE1,1:R1-9:R2$$$V2.0)", "quantity": "HDAC2 activity raw data (signal)", "quantitative.readout": 554743}
{"compound": "NCCCC[C@H]1NC(=O)[C@H](CCC(N)=O)NC(=O)[C@H](CCC(=O)O)NC(=O)[C@@H]2CCCN2C(=O)[C@H](CC(N)=O)NC(=O)[C@H](CCCCCS)NC(=O)CNC(=O)[C@H](Cc2c[nH]c3ccccc23)NC1=O [des1.1.1, SHA-Asn-Pro-Glu-Gln-dLys-Trp-Gly] (HELM PEPTIDE1{E.Q.[dK].W.G.[O=C([C@H](CCCCCS)N[*:1])[*:2]].N.P}$PEPTIDE1,PEPTIDE1,1:R1-8:R2$$$V2.0)", "quantity": "HDAC2 activity raw data (signal)", "quantitative.readout": 768698}

Now look at this entry.
The compound listed as NCCCC[C@@H]1NC(=O)[C@@H]2C[C@@H](O)CN2C(=O)[C@H](CC(N)=O)NC(=O)[C@H](CCCCCS)NC(=O)CNC(=O)[C@H](Cc2c[nH]c3ccccc23)NC(=O)[C@@H](CCCCN)NC(=O)[C@H](CCC(N)=O)NC1=O [des1.1.2, SHA-Asn-Hpr-Lys-Gln-dLys-Trp-Gly] (HELM PEPTIDE1{G.[O=C([C@H](CCCCCS)N[*:1])[*:2]].N.[Hyp].K.Q.[dK].W}$PEPTIDE1,PEPTIDE1,1:R1-8:R2$$$V2.0) has a reported HDAC2 activity raw data (signal) of 1015460
